- Test system: melanin
- procedureDetails: Binding capacity of compounds to melanin
- Assay type: in vitro ADME
- conditionNotes: Sepia officinalis (cuttlefish), melanin suspension (1 mg/mL); 1 mg/mL melanin suspension in PBS pH 7.4, 2 μM compound, 2 h at 37° C.; read-out: Fu % (percentage of free drug, not bound to melanin)
attributeMeasured: fraction unbound at 2 h, 2 μM

CNC(=O)c1cccc(F)c1Sc1ccc2c(/C=C/c3cnn(CCCN4CCCC4)c3)n[nH]c2c1 :: > 0.05
CCN(CC)Cc1ccc(/C=C/c2n[nH]c3cc(Sc4ccccc4C(=O)NC)ccc23)nc1 :: 0.01 to 0.05

Could you now look at the following molecule, please?
Query (molecule): CNC(=O)c1ccccc1Sc1ccc2c(/C=C/c3cnn(CCCN4CCCC4)c3)n[nH]c2c1 ; field requested: fraction unbound at 2 h, 2 μM 0.01 to 0.05

====

- systemName: EGFR (Homo sapiens (Human), UniProt P00533)
- Sequence (P00533 25-1210): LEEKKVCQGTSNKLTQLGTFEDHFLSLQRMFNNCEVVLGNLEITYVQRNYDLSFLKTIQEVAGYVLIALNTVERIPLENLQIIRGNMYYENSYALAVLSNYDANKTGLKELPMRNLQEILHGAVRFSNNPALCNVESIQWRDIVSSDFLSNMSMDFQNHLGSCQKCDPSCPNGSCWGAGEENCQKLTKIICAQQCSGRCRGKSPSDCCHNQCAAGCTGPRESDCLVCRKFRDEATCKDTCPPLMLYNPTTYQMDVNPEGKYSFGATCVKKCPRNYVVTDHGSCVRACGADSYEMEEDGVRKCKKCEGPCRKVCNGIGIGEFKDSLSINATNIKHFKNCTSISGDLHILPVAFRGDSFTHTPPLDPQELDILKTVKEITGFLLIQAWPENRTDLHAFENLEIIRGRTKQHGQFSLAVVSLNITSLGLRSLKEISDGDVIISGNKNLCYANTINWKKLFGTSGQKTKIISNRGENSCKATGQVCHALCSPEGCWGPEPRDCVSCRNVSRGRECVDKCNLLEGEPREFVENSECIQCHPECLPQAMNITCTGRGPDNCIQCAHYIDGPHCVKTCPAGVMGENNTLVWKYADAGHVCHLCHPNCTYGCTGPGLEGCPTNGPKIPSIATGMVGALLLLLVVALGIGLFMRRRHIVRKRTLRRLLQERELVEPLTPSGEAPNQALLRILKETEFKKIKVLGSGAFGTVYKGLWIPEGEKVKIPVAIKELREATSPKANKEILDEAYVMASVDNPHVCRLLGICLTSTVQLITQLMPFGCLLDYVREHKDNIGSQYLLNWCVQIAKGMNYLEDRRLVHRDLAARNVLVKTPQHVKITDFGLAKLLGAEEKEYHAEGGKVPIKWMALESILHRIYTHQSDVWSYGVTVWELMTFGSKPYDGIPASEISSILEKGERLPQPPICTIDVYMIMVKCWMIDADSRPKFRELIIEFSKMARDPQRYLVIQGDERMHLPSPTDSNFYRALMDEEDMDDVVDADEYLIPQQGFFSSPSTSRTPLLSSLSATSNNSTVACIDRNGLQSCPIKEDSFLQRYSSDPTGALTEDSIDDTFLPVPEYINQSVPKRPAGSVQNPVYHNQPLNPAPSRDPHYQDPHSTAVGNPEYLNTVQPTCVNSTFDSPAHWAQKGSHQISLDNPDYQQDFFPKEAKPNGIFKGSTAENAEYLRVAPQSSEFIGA
- procedureDetails: Kinase inhibition, Mobility Shift Assay (EGFR)
- Type: biochemical
attributeMeasured: IC50

Here's what some known entries look like.
CNC(=O)c1ccccc1Sc1ccc2c(/C=C/c3ccc(OCCN4CCCC4)nc3)n[nH]c2c1 [Compound I-19] :: > 60000 nM
O=C(NC1CC1)c1ccccc1Sc1ccc2c(/C=C/c3ccn(CCN4CCCC4)n3)n[nH]c2c1 [Compound I-60] :: 600 to 6000 nM

Query (molecule): CNC(=O)c1ccccc1Sc1cnc2c(/C=C/c3ccccn3)n[nH]c2c1 [Compound I-21] ; field requested: IC50 6000 to 60000 nM

Query (molecule): CCNC(=O)c1cccc(F)c1Sc1ccc2c(/C=C/c3cccc(CCN4CCCC4)n3)n[nH]c2c1 [Compound I-129] ; field requested: IC50 > 60000 nM

Query (molecule): CNC(=O)c1ccccc1Sc1ccc2c(/C=C/c3cc(OCCN4CCCC4)ccn3)n[nH]c2c1 [Compound I-20] ; field requested: IC50 6000 to 60000 nM

====

- systemName: EGFR (Homo sapiens (Human), UniProt P00533)
- procedureDetails: Kinase inhibition, Mobility Shift Assay (EGFR)
- Type: biochemical
- Protocol: This assay directly monitored the ability of compounds to inhibit kinase phosphorylation by measuring non-phosphorylated and phosphorylated substrates in kinase reactions by using Mobility Shift Assays/IMAP™ analysis. Add the kinase and DTT to 1× kinase buffer to form a 2.5× kinase solution; transfer 10 μL of 2.5× kinase solution to a 384-well reaction plate and add 1× kinase buffer to negative control wells. […] Read the conversion ratio data on CaliperEZ Reader II. […]
Reported IC50 by item:

Here's what some known entries look like.
O=C(NC1CC1)c1ccccc1Oc1ccc2c(/C=C/c3ccc(CN4CCCC4)cn3)n[nH]c2c1 :: 6000 to 60000 nM
CCNC(=O)c1cccc(F)c1Sc1ccc2c(/C=C/c3ccc(CN4CCCC4)cn3)n[nH]c2c1 :: 6000 to 60000 nM

Query (compound): CNC(=O)c1ccccc1Sc1ccc2c(NC(=O)NCCN3CCN(C)CC3)n[nH]c2c1 ; field requested: IC50 > 60000 nM

====

- systemName: EGFR (Homo sapiens (Human), UniProt P00533)
- procedureDetails: Kinase inhibition, Mobility Shift Assay (EGFR)
- Format: biochemical
Reported IC50 by item:

Here's what some known entries look like.
O=C(NC1CC1)c1cc(F)ccc1Sc1ccc2c(/C=C/c3cccc(CCCN4CCCC4)n3)n[nH]c2c1 [Compound I-132] :: 6000 to 60000 nM
CNC(=O)c1ccccc1Sc1ccc2c(/C=C/c3cnn(CCN4CCCC4)c3)n[nH]c2c1 [Compound I-9] :: 6000 to 60000 nM
CNC(=O)c1cccc(F)c1Sc1ccc2c(/C=C/c3ccc(OCCN4CCCC4)cn3)n[nH]c2c1 [Compound I-33] :: 6000 to 60000 nM

Could you now look at the following compound, please?
Query (compound): CCNC(=O)c1cccc(F)c1Sc1ccc2c(/C=C/c3cc(CN4CCCC4)ccn3)n[nH]c2c1 [Compound I-114] ; field requested: IC50 > 60000 nM
